tested on: RXF 393 renal; assay: NCI-60 one-dose screen, 48 h (100 = growth as untreated, 0 = no growth, -100 = all killed); conditions: 10 µM
The panel holds about 83,000 compounds, 20% with a hit somewhere; the sample as a whole holds those more often.
readout type: growth (%)
Give the quantity in %, number only.

compound	result units	growth
Nc1ccc(N=Nc2ccc(O)cc2)c(N)n1	%	91.6
O=C(O)/C=C/C(=O)NCc1ccccc1	%	104
COc1cccc(COC(=O)Nc2ccccc2)c1OC	%	95.8
CCOc1ccccc1/C=N/Nc1nc2ccccc2o1	%	112
OC1OC(COC(c2ccccc2)(c2ccccc2)c2ccccc2)C(O)C(O)C1O (configuration not stated)	%	95.8

Task: # return recorded growth for entry O=C(CCl)Nc1ccc2c(c1)C(=O)c1ccc(NC(=O)CCl)cc1C2=O
Result: -86

Task: Give growth for the following compound: Cc1ccc(N)cc1[N+](=O)[O-]
Result: 114

Task: Provide only the value of recorded growth for CCNc1nc2c(cnn2C)c(=O)[nH]1
Result: 94.6

Task: State its growth: Cc1cc(N2CCC(N3CCCC3)CC2)nc(/N=C(\N)Nc2ccc(Cl)c(Cl)c2)n1
Result: -69.7

Task: Tell me its growth given O=C(O)c1cc([N+](=O)[O-])ccc1Cl as the entry.
Result: 112

Task: Determine from records and report growth for O=C(OCC(O)C1OC(c2ccccc2)OC(COC(=O)c2ccccc2)C1O)c1ccccc1 (configuration not stated)
Result: 96.3

Task: Provide measured growth value, entry: N#C/C(=C\c1cc(O)c(O)c(O)c1)C(N)=O
Result: 99.6

Task: Note down growth recorded for O=c1cc(-c2ccccc2)[nH]c2c1CCCC2
Result: -21.7

----------
test system: SR leukemia; assay: NCI-60 one-dose screen, 48 h (100 = growth as untreated, 0 = no growth, -100 = all killed); conditions: 10 µM
This is part of a sample that, as a whole, favours compounds with a hit. Of some 83,000 tested, about 20% had one in any assay.
Readings of growth for the listed molecules
Write the answer as a number in %, unit excluded.

Completed entries (count: 2):
molecule	result units	growth
NNc1ccccc1C(=O)O	%	112
CC1CCCC(CC(N)=O)CC1 (stereo unspecified)	%	94.7

Task: Report measured growth; entry is CCOC(=O)c1coc(C(=O)OCC)c1C(=O)OCC
Result: 113

Task: # return recorded growth for input OCc1cccc2ccccc12
Result: 104

Task: Supply growth value. Item: CC1CCCCN1C(=S)Nc1ccc(S(=O)(=O)N2CCCCC2)cc1 (stereo unspecified)
Result: 81.1

Task: Entry O=c1[nH]cc(Cl)cc1O needs its growth filled in; supply it.
Result: 76.2

Task: Please report growth for the following molecule: Cc1ccc(Cl)cc1NC(=O)N(C)CCO
Result: 113

Task: Report growth for CO[C@H]1C[C@@H]2CC[C@@H](C)[C@@](O)(O2)C(=O)C(=O)N2CCCC[C@H]2C(=O)O[C@H]([C@H](C)C[C@@H]2CC[C@@H](O)[C@H](OC)C2)CC(=O)[C@H](C)C=C(C)[C@@H](O)[C@@H](OC)C(=O)[C@H](C)C[C@H](C)/C=C/C=C/C=C1C
Result: 23.7

Task: Tell me its growth given COc1ccc(-c2cc3c(nn2)-c2ccccc2C3=O)cc1 as the entry.
Result: -21.8

Task: Read off the recorded growth for C/C(O)=C(\C=N\C(N)=S)C(=O)Nc1ccccc1
Result: 91.7

Task: Supply recorded growth for CC(C)C(C#N)(C(C)C)C(C)C here.
Result: 89.8

----------
test system: K-562 leukemia; experiment: NCI-60 one-dose screen, 48 h (100 = growth as untreated, 0 = no growth, -100 = all killed); details: 10 µM
This is part of a sample that, as a whole, favours compounds with a hit. Of some 83,000 tested, about 20% had one in any assay.
I'd appreciate it if you marked entries MET when growth is lower than 80% and NOT MET when it is not.

compound	study target	label value
c1ccc(/C(=N\N=C(/c2ccccc2)c2cccs2)c2cccs2)cc1	K-562 leukemia	NOT MET
O=P(O)(O)OCC(O)CO (stereo not drawn)	K-562 leukemia	NOT MET
CN(C)c1ccc(S(=O)(=O)O)cc1	K-562 leukemia	NOT MET
OC1CCCc2ccccc21 (stereo not drawn)	K-562 leukemia	NOT MET
COc1cc2c3c(n(C)c(=O)c2cc1OC)-c1cc2c(cc1C3=O)OCO2	K-562 leukemia	MET

Task: Is the reported growth for N#Cc1c(N)sc(=S)c2c1CCCC2 strictly below 80%?
Result: NOT MET

Task: Is it true that growth reported for CCCNc1ccc(C2=NCCCN2)cc1 is less than 80%?
Result: NOT MET

Task: Is it true that growth reported for O=c1cc(-c2ccccc2)oc2c1ccc1ccccc12 is less than 80%?
Result: NOT MET

Task: Find out if reported growth for O=c1cc2oc3cc(O)c(O)cc3c(-c3ccccc3O)c-2cc1O is less than 80%
Result: MET

Task: Is the reported growth for NC(C(=O)O)C(O)c1ccco1 (stereo not drawn) strictly below 80%?
Result: NOT MET

Task: # check: growth < 80% for COc1cc(-c2ccc(NC(=O)NC3CC3)c(OC)c2)ccc1NC(=O)NC1CC1
Result: MET

----------
test system: MDA-MB-435 melanoma; test: NCI-60 one-dose screen, 48 h; conditions: 10 µM
Compounds without any hit were thinned out: in the full panel of roughly 83,000, 20% have a hit. Active and inactive are the calls of the source. Rule for the calls: active = growth percent below 10; inactive = the rest.
Lab note: assign the record to one of active, inactive

compound	study target	label value
OCC(O)C(O)C(O)C(O)/C=N/O (configuration not stated)	MDA-MB-435 melanoma	inactive

Task: Given O=C1C=CC2=C3c4cc(O)c(O)cc4CC3(O)COC2=C1O (configuration not stated) , state the outcome it received in this test.
Result: inactive

Task: Record lookup: outcome of this test for O=[N+]([O-])c1ccc(N=Nc2ccccc2)cc1 ?
Result: inactive

Task: // return assay outcome for CCOC(=O)Nc1cc2c(c(N)n1)N=C(c1ccccc1)CO2
Result: active

Task: Which outcome did this test record for the compound NC(=O)c1ccc(N=C(N)N=C(N)N)cc1 ?
Result: inactive

Task: Per the records of this test, what outcome belongs to O=C(NC1CCCCC1)OCc1c(COC(=O)NC2CCCCC2)c(-c2ccc(Cl)c(Cl)c2)n2c1CCC2 ?
Result: inactive

Task: State the result this test recorded for O=C1NC(=O)C2C(=O)NC(=O)C1C21CCc2ccccc21 (configuration not stated) .
Result: inactive

Task: Returns: the outcome recorded for CC(C)(C)c1cc(O)c(C(C)(C)C)cc1O in this assay.
Result: inactive

----------
# maps each entry to its growth
system: RPMI-8226 leukemia; experiment: NCI-60 one-dose screen, 48 h (100 = growth as untreated, 0 = no growth, -100 = all killed); settings: 10 µM
Compounds without any hit were thinned out: in the full panel of roughly 83,000, 20% have a hit.
Report the value in % with no unit label.

// solved cases for growth follow
compound	result units	endpoint result
OCC(O)C(O)C(O)C(O)/C=N/O (stereo not given)	%	94.9
CC(=O)Cc1ccc(-c2ccccc2)cc1	%	97.5
C#CC(C)(O)c1ccc(Cl)cc1 (stereo not given)	%	101
OCCN(CCO)C(=S)S	%	111
O=C(NN=C1CCCCC1)C(=O)NN=C1CCCCC1	%	99.6

Task: Tell me its growth on RPMI-8226 leukemia: CCCNc1ccc(C2=NCCCN2)cc1
Result: 98.2

----------
tested on: TK-10 renal; assay: NCI-60 one-dose screen, 48 h (100 = growth as untreated, 0 = no growth, -100 = all killed); conditions: 10 µM unless noted
Compounds without any hit were thinned out: in the full panel of roughly 83,000, 20% have a hit.
readout type: growth (%)
Give just the numeric value; % need not be written.

Below, 4 compounds whose answers are already recorded.
compound	study target	result units	growth
CS(=O)CC1=NC(=N)N=C1CS(C)=O (stereo not given)	TK-10 renal	%	101
O=C(OCC(O)C1OC(c2ccccc2)OC(COC(=O)c2ccccc2)C1O)c1ccccc1 (stereo not given)	TK-10 renal	%	99.6
COc1ccc2c(NCCCCCCCCNc3c4ccccc4nc4cc(OC)ccc34)c3ccccc3nc2c1	TK-10 renal	%	-72.9
O=C1c2ccccc2C(=O)c2c1ccc(C(=O)O)c2[N+](=O)[O-]	TK-10 renal	%	109

Task: Provide measured growth value, entry: COc1ccc2c(c1)CCc1c-2n[nH]c1-c1[nH]nc2c1CCc1cc(OC)ccc1-2
Result: 109

----------
Some molecules, each annotated with its measured growth.
system: NCI-H226 lung; assay: NCI-60 one-dose screen, 48 h (100 = growth as untreated, 0 = no growth, -100 = all killed); conditions: 10 µM
Compounds without any hit were thinned out: in the full panel of roughly 83,000, 20% have a hit.
Supply the numeric figure in %, leaving out any unit text.

Task: Give reported growth value for COc1cc(OC)c2ccc(=O)oc2c1
Result: 114

Task: Hello, please tell me recorded growth for this one: OCC1OC(OC2C(O)C(CO)OC2(CO)OC2OC(CO)C(O)C(O)C2O)C(O)C(O)C1O (stereo not drawn)
Result: 115

Task: Name the recorded growth of the molecule listed here: O=C(N/N=C/c1ccccc1O)Nc1nn[nH]n1
Result: 96.4

Task: Give the measured growth for Cc1cc(OCCO)cc(C)c1Cl
Result: 108

Task: Please list growth recorded for the molecule CNC(=O)c1ccccc1CC1(O)c2ccccc2Oc2ccccc21
Result: 77

Task: Answer with the recorded growth for the molecule listed here: N=c1c(C(=O)OCc2ccccc2)ncc(CCl)n1O
Result: 92.9

This collection of values is drawn from PubChem BioAssay (NCI).
